Tested on: HT29 human colon adenocarcinoma cells
Assay: Cellular proliferation assay (MTT)
Type: cell-based
Condition Info: HT29, MTT assay after 72 h; read-out: IC50 proliferation inhibition
Metric: IC50 (µM)
Answers are plain numbers, in µM.

COc1ccc(CCN(CC(=O)N(CCc2ccccc2)CC(N)=O)C(=O)CNCCc2ccccc2)cc1 [N10-13-10C]
40

Turning now to a further record.
Lookup: Which IC50 value belongs to COc1ccc(CCNCC(=O)N(CCc2ccc(OC)cc2)CC(=O)N(CCc2ccccc2)CC(N)=O)cc1 [N13-13-10C] ?
Found: 35

* * *

So I've got a bunch of compounds here, and I need their IC50 values.
Test system: T98g glioblastoma cells
Assay: BrdU incorporation assay (DNA synthesis)
Assay type: cell-based, human
Condition Info: synchronized T98 g, 17 h + 2 h BrdU; read-out: IC50 BrdU incorporation (DNA synthesis inhibition)
Give bare numbers, in µM.

Cn1cnc2c(NCc3ccccc3)nc(NCCO)nc21
50
COc1ccc(CCNCC(=O)N(CCc2ccc(OC)cc2)CC(=O)N(CCc2ccccc2)CC(N)=O)cc1 [N13-13-10C]
150

Turning now to a further record.
Lookup: Which IC50 value belongs to COc1ccc(CCN(CC(=O)N(CCc2ccccc2)CC(N)=O)C(=O)CNCCc2ccccc2)cc1 [N10-13-10C] ?
Found: 100
